- ASSAY_SYSTEM: Neuronal acetylcholine receptor subunit alpha-4 (Homo sapiens, UniProt P43681)
- Sequence (P43681 whole entry): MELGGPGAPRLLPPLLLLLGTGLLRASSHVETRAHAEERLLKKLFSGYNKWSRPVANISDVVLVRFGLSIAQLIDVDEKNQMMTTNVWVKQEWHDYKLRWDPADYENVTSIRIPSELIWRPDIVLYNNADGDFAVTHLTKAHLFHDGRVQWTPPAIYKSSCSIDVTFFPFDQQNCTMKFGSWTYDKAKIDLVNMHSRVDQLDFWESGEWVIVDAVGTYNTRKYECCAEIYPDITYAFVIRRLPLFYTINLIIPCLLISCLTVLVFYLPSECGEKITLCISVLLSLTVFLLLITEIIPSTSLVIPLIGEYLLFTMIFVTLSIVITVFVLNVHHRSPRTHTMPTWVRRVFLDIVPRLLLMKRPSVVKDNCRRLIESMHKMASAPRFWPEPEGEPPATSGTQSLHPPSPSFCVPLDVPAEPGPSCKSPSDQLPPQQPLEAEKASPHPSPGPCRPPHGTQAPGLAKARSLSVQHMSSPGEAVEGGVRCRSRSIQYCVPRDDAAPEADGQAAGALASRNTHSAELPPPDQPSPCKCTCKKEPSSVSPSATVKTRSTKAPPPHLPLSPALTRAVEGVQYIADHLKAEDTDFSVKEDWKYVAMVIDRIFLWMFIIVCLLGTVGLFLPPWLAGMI
PROPERTY_MEASURED: Ki (nM)

{"columns": ["COMPOUND", "RESULT_OPERATOR", "REPORTED_VALUE"],
 "data": [
  ["CNC1(C)C2CCC(C2)C1(C)C (stereo unspecified)", ">", 10000],
  ["c1cncc(C2CCCCN2)c1 (stereo not drawn) [(+-)-anabasine]", "=", 37.6],
  ["CCN1C[C@]2(COC(=O)c3ccccc3-n3c(O)cc(C)c3O)CC[C@H](OC)[C@]34C5C[C@@H]6[C@@H](OC)C[C@@](O)(C5[C@H]6OC)[C@@](O)(C13)[C@@H](OC)C24 (stereo partly specified)", "=", 3210],
  ["C[N+]1(C)CCN(c2ccccc2)CC1 [DMPP]", "=", 10.7],
  ["O=c1cccc2n1C[C@H]1CNC[C@H]2C1", "=", 0.43],
  ["C=C(C=O)C[C@H]1C[C@H](O)[C@]2(C)O[C@@H]3C[C@@H]4O[C@@H]5C[C@]6(C)O[C@]7(C)CC[C@@H]8O[C@@H]9C[C@]%10(C)O[C@@H]%11C(C)=CC(=O)O[C@H]%11C[C@H]%10O[C@H]9C[C@@H](C)[C@H]8O[C@H]7C[C@H]6O[C@@]5(C)C/C=C\\[C@H]4O[C@H]3C[C@H]2O1", "=", 4730],
  ["C[N+](C)(C)CCCCCCCCCC[N+](C)(C)C [Decamethonium Iodide]", "=", 962],
  ["COc1cc2c3cc1Oc1cc(ccc1O)C[C@H]1c4c(cc(OC)c(O)c4Oc4ccc(cc4)C[C@@H]3N(C)CC2)CC[N+]1(C)C [CAS_57-94-3]", "=", 3480],
  ["C[N+](C)(C)CC[N+]1(C)Cc2c(Cl)c(Cl)c(Cl)c(Cl)c2C1 [CAS_6243]", ">", 10000],
  ["CN1[C@@H](C[C@@H](O)c2ccccc2)CCC[C@H]1CC(=O)c1ccccc1 [Lobeline]", "=", 1.92],
  ["C[N+](C)(C)CCOC(N)=O", "=", 68.2]
]}
